Task for the reader: assign each of the following compounds its reported pIC50.
assayedTarget: Human immunodeficiency virus type 1 protease (Human immunodeficiency virus 1, UniProt Q72874)
Numbers only, as −log10 of the molar value.

CC(C)[C@H](COCc1ccccc1)NC(=O)C(F)(F)[C@H](O)C(Cc1ccc(OCc2ccccc2)cc1)NC(=O)[C@@H](NC(=O)OCc1ccccc1)C(C)C (some centres undefined) = 8.30
CC(C)[C@H](NC(=O)OCc1ccccc1)C(=O)NC(Cc1ccc(OCc2ccccc2)cc1)C(=O)C(F)(F)C(=O)N[C@@H](C(=O)OC(C)(C)C)C(C)C (some centres undefined) = 8.22
CC(C)C[C@H](COCc1ccccc1)NC(=O)C(F)(F)C(=O)C(Cc1ccc(OCc2ccccc2)cc1)NC(=O)[C@@H](NC(=O)OCc1ccccc1)C(C)C (some centres undefined) = 8.74
CC(C)[C@H](COCc1ccccc1)NC(=O)C(F)(F)[C@@H](O)C(Cc1ccc(OCc2ccccc2)cc1)NC(=O)[C@@H](NC(=O)OCc1ccccc1)C(C)C (some centres undefined) = 8.18
CC(C)CNC(=O)C(F)(F)C(=O)C(Cc1ccc(OCc2ccccc2)cc1)NC(=O)[C@@H](NC(=O)OCc1ccccc1)C(C)C (some centres undefined) = 8.30
CC(C)C(C=O)NC(=O)C(F)(F)C(=O)C(Cc1ccc(OCc2ccccc2)cc1)NC(=O)[C@@H](NC(=O)OCc1ccccc1)C(C)C (some centres undefined) = 8.40
CC(C)[C@H](NC(=O)OCc1ccccc1)C(=O)NC(Cc1ccc(OCc2ccccc2)cc1)C(=O)C(F)(F)C(=O)N[C@@H](C(=O)O)C(C)C (some centres undefined) = 8.40
CC(C)[C@@H](COCc1ccccc1)NC(=O)C(F)(F)C(=O)C(Cc1ccc(OCc2ccccc2)cc1)NC(=O)[C@H](NC(=O)OCc1ccccc1)C(C)C (some centres undefined) = 5.70
CC(C)[C@H](NC(=O)OCc1ccccc1)C(=O)NC(Cc1ccc(OCc2ccccc2)cc1)C(=O)C(F)(F)C(=O)N[C@H](COCc1ccccc1)C(C)C (some centres undefined) = 7.40

Could you now look at the following compound, please?
Which pIC50 reading was recorded for the compound CC(C)[C@H](COCc1ccccc1)NC(=O)C(F)(F)C(=O)C(Cc1ccc(OCc2ccccc2)cc1)NC(=O)[C@H](NC(=O)OCc1ccccc1)C(C)C (some centres undefined) ? 7.22
